TARGET ENTITY: 28 CDKs family protein kinases (Homo sapiens)
Sequence (Q14004 whole entry): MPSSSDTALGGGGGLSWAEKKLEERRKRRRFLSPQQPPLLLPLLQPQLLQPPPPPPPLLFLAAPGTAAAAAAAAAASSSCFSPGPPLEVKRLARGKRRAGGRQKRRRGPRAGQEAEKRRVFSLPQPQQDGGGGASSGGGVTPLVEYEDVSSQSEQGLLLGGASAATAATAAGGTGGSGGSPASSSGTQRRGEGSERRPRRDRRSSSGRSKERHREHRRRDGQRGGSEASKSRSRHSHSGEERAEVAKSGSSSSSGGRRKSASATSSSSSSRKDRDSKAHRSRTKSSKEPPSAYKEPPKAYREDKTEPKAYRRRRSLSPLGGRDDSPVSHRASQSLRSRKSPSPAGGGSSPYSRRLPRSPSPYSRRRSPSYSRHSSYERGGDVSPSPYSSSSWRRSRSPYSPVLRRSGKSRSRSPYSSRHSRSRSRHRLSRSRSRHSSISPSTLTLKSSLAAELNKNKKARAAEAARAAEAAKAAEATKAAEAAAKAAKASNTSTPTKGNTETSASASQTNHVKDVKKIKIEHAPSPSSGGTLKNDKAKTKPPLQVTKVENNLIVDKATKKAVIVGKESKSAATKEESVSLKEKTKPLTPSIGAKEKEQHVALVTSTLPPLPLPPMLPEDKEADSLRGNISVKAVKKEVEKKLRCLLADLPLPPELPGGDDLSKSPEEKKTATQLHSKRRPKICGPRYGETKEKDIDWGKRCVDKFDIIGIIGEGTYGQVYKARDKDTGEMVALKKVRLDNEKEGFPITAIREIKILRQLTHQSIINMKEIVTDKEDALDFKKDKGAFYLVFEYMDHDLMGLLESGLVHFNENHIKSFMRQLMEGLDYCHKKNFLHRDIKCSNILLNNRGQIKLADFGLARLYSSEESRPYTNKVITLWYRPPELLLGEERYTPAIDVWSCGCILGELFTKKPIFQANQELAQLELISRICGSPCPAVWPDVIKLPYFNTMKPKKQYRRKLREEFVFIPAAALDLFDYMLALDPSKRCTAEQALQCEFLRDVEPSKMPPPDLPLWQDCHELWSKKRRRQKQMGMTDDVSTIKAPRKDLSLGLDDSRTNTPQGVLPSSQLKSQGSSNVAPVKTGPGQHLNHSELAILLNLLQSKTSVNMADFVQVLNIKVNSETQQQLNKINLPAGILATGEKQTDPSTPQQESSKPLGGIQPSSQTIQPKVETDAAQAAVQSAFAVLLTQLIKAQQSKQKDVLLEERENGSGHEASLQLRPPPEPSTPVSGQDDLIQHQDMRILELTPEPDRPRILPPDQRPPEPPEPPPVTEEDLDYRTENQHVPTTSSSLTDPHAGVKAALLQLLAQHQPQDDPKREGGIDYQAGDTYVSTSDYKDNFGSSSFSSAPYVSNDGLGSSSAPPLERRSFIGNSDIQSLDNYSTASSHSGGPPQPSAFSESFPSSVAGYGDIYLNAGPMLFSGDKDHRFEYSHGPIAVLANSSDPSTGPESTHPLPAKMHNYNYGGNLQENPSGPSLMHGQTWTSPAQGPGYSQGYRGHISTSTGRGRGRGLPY
Sequence (O75909 whole entry partner): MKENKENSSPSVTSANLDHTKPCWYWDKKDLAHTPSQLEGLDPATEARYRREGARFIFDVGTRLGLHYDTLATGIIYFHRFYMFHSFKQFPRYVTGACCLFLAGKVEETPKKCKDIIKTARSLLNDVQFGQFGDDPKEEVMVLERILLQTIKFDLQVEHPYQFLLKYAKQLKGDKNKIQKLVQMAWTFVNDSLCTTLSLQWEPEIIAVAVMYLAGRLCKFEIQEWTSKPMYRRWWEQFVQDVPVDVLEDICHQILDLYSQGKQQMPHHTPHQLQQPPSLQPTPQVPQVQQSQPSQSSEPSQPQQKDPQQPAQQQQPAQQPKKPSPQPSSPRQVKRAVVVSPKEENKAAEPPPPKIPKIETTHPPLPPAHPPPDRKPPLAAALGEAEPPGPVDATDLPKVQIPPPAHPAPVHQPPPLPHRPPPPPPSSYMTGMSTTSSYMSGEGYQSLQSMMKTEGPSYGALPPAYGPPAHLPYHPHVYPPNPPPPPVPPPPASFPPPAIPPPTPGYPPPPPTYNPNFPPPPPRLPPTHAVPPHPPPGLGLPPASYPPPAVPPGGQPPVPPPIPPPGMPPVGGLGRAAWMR
MEASURED QUANTITY: IC50

Prompt: Need IC50 of CC(C)c1cnn2c(NCc3ccccc3-c3nccc4cc(NC(=O)/C=C/CN(C)C)ccc34)nc(N3CCC(N)CC3)nc12 [Compound 11] , thanks.
Completion: > 10 µM

----------
TARGET ENTITY: CDK7/Cyclin H/MNAT1 (Homo sapiens, UniProt P50613)
Sequence (P50613 whole entry): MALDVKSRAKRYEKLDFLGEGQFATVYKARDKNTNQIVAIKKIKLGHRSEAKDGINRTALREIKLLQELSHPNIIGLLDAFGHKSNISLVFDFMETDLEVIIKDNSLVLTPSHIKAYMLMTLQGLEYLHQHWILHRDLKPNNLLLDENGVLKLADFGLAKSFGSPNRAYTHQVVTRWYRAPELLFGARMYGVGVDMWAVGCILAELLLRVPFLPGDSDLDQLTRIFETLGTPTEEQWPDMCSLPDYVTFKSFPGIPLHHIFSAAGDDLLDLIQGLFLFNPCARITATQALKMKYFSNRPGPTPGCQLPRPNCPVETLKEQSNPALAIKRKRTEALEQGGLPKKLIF
Sequence (P51946 whole entry partner): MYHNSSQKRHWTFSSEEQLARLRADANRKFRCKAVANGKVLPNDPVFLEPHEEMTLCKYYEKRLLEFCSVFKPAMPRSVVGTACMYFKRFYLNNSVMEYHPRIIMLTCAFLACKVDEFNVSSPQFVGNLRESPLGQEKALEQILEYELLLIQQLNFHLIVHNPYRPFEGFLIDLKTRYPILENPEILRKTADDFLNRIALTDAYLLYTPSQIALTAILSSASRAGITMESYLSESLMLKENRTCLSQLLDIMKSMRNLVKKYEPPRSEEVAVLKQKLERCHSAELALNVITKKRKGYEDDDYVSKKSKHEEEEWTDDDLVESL
Sequence (P51948 whole entry partner): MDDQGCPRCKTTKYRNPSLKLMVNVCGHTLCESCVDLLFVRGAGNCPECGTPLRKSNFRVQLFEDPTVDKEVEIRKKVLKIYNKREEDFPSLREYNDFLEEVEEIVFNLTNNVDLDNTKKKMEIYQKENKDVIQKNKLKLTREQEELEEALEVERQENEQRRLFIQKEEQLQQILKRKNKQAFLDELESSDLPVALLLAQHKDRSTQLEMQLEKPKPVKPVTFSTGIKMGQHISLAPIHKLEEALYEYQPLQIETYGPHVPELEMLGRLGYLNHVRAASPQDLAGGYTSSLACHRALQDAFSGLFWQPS
PROTOCOL TEXT: Enzymatic assay for CDK7 (LANCE Ultra kinase assay, FRET based)
CONDITION SET: ATP at Km
MEASURED QUANTITY: IC50

Prompt: Need IC50 of CC(C)c1cnn2c(NCc3ccccc3-c3nccc4cc(NC(=O)/C=C/CN(C)C)ccc34)nc(N3CCC4(CC3)OCCO4)nc12 , thanks.
Completion: < 100 nM

Prompt: Then CC(C)c1cnn2c(NCc3cccc(OC4CCCN(C(=O)/C=C/CN(C)C)CC4)c3)nc(N3CCC(N)CC3)nc12 (racemic) ?
Completion: < 100 nM

Prompt: Then C=C(F)C(=O)Nc1ccc2c(-c3ccccc3CNc3nc(N4CCC(OC(C)C)CC4)nc4c(C(C)C)cnn34)nccc2c1 ?
Completion: > 1000 nM

Prompt: Then C/C=C/C(=O)Nc1ccc2c(-c3ccccc3CNc3cc(NC[C@H]4CCNC[C@@H]4O)nc4c(C(C)C)cnn34)nccc2c1 ?
Completion: < 100 nM

Prompt: Then C=CC(=O)Nc1cccc2ccc(-c3cccc(C)c3CNc3nc(N[C@H]4CC[C@H](OC)CC4)nc4c(C(C)C)cnn34)nc12 ?
Completion: 100 to 1000 nM

Prompt: Then CO[C@H]1CC[C@H](Nc2nc(NCc3c(C)cccc3-c3cc4cccc(NC(=O)/C=C/CN(C)C)c4[nH]3)n3ncc(C(C)C)c3n2)CC1 ?
Completion: 100 to 1000 nM

Prompt: Then CC(C)c1cnn2c(NCc3ccccc3-c3nccc4cc(NC(=O)/C=C/CN(C)C)ccc34)nc(N3CCC4(CCN(C)C4)CC3)nc12 ?
Completion: < 100 nM

Prompt: Then CC(C)c1cnn2c(NCc3ccccc3-c3nccc4cc(NC(=O)/C=C/CN(C)C)ccc34)nc(N3CC4COCC4C3)nc12 (stereo not shown) ?
Completion: 100 to 1000 nM

Prompt: Then CC(C)c1cnn2c(NCc3ccccc3-c3nccc4cc(NC(=O)/C=C/CN(C)C)ccc34)nc(N[C@H]3CC[C@H](C)NC3)nc12 ?
Completion: < 100 nM

Prompt: Then CC(C)c1cnn2c(NCc3ccccc3-c3nccc4cc(NC(=O)/C=C/CN(C)C)ccc34)nc(NCC3CCNCC3)nc12 ?
Completion: < 100 nM

Prompt: Then CC(C)c1cnn2c(NCc3cccc4ccc(NC(=O)/C=C/CN(C)C)nc34)nc(N3CCC(N)CC3)nc12 ?
Completion: < 100 nM

Prompt: Then CC(C)c1cnn2c(NCc3ccccc3-c3ccnc4cc(NC(=O)/C=C/CN(C)C)ccc34)nc(N3CCC(N)CC3)nc12 ?
Completion: < 100 nM

Prompt: Then CC(C)c1cnn2c(NCc3cccc(Oc4ccc(Cl)c(NC(=O)/C=C/CN(C)C)c4)c3)nc(N3CCC(N)CC3)nc12 ?
Completion: < 100 nM

----------
TARGET ENTITY: CDK5/p25 (Homo sapiens)
Sequence (Q00535 whole entry): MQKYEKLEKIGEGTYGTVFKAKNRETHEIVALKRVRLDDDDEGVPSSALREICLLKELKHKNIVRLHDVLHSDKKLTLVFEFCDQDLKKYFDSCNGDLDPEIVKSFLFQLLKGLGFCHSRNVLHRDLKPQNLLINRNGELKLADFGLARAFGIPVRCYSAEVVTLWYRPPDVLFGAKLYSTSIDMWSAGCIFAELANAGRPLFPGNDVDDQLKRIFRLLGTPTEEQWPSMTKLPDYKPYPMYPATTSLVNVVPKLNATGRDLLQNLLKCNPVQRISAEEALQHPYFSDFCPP
Sequence (Q15078 99-307 partner limits assumed): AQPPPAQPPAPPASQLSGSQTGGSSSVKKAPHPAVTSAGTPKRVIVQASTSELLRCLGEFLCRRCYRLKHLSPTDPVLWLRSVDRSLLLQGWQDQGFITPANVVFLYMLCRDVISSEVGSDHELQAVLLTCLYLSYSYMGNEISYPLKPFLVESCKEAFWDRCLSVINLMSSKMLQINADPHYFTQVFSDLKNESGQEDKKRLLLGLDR
PROTOCOL TEXT: Enzymatic assay for CDK5 (LANCE Ultra kinase assay, FRET based)
CONDITION SET: ATP at Km
pIC50: −log10 of the molar value.
MEASURED QUANTITY: pIC50

Prompt: Record lookup: for CDK5/p25 (Homo sapiens), what pIC50 belongs to CC(C)c1cnn2c(NCc3ccccc3-n3cc4cccc(NC(=O)/C=C/CN(C)C)c4n3)nc(N3CCC(N)CC3)nc12 ?
Completion: 6.00 to 7.00

Prompt: Then CC(C)c1cnn2c(NCc3ccccc3-c3nccc4cc(NC(=O)/C=C/CN5CCOCC5)ccc34)nc(NC3CCC(C)(C)NC3)nc12 (stereo not shown) ?
Completion: < 6.00

Prompt: Then C=C(F)C(=O)Nc1ccc2c(-c3ccccc3CNc3nc(N4CCC(OCC)CC4)nc4c(C(C)C)cnn34)nccc2c1 ?
Completion: < 6.00

Prompt: Then CC(C)c1cnn2c(NCc3ccccc3-c3nccc4cc(NC(=O)/C=C/CN5CCOCC5)ccc34)nc(N3CCC(N)CC3)nc12 ?
Completion: < 6.00

Prompt: Then C=CC(=O)N1CCc2c(ccnc2-c2ccccc2CNc2nc(OC3CCC(C)(C)NC3)nc3c(C(C)C)cnn23)C1 (stereo not shown) ?
Completion: < 6.00

Prompt: Then CC(C)c1cnn2c(NCc3ccccc3-c3nccc4cc(NC(=O)/C=C/CN(C)C)ccc34)nc(N3CCNCC3)nc12 ?
Completion: < 6.00

Prompt: Then C=CC(=O)Nc1cccc(Oc2cccc(CNc3nc(N4CCC(N(C)C)CC4)nc4c(C(C)C)cnn34)c2)c1 ?
Completion: 6.00 to 7.00

----------
Please provide measured pIC50 for the entries that follow.
TARGET ENTITY: CDK7/Cyclin H/MNAT1 (Homo sapiens)
PROTOCOL TEXT: Enzymatic assay for CDK7 (LANCE Ultra kinase assay, FRET based)
CONDITION SET: ATP at Km
pIC50: −log10 of the molar value.

Prompt: Need pIC50 of CC(C)c1cnn2c(NCc3ccccc3-c3nccc4cc(NC(=O)/C=C/CN(C)C)ccc34)nc(N3CC4CCC(C3)N4C)nc12 , thanks.
Completion: > 7.00

Prompt: Then C=C(F)C(=O)Nc1ccc2c(-c3ccccc3CNc3nc(N4CCCC(OC)CC4)nc4c(C(C)C)cnn34)nccc2c1 (stereo not shown) ?
Completion: < 6.00

Prompt: Then CC(C)c1cnn2c(NCc3ccccc3-c3nccc4cc(NC(=O)/C=C/CN(C)C)ccc34)cc(N3CCC4(CC3)OCCO4)nc12 ?
Completion: > 7.00

Prompt: Then CO[C@H]1CC[C@H](Nc2cc(NCc3ccccc3-c3nccc4cc(NC(=O)/C=C/CN(C)C)ccc34)n3ncc(C(C)C)c3n2)CC1 ?
Completion: > 7.00

Prompt: Then CC(C)c1cnn2c(NCc3ccccc3-c3nccc4cc(NC(=O)/C=C/CN(C)CC(N)=O)ccc34)nc(N3CCC(N)CC3)nc12 ?
Completion: > 7.00

Prompt: Then C=CC(=O)Nc1cccc2ccc(-c3cccc(C)c3CNc3nc(NC[C@H]4CCNC[C@@H]4O)nc4c(C(C)C)cnn34)nc12 ?
Completion: > 7.00

Prompt: Then C=CC(=O)Nc1cccc(Oc2cccc(CNc3nc(N4CCC(N)CC4)nc4c(C(C)C)cnn34)c2)c1 ?
Completion: > 7.00

Prompt: Then C=C(F)C(=O)Nc1ccc2c(-c3ccccc3CNc3nc(NC[C@H]4CCNC[C@@H]4O)nc4c(C(C)C)cnn34)nccc2c1 ?
Completion: > 7.00

Prompt: Then C=C(F)C(=O)Nc1cccc2cc(-c3cccc(C)c3CNc3nc(NC[C@H]4CCNC[C@@H]4O)nc4c(C(C)C)cnn34)[nH]c12 ?
Completion: > 7.00

Prompt: Then CC(C)c1cnn2c(NCc3ccccc3-c3nccc4cc(NC(=O)/C=C/CN(C)C)ccc34)nc(OC3CC4CCC(C3)N4C)nc12 (stereo not shown) ?
Completion: > 7.00

Prompt: Then CC(C)c1cnn2c(NCc3ccccc3-c3nccc4cc(NC(=O)/C=C/CN(C)C)ccc34)nc(N3CCc4sccc4C3)nc12 ?
Completion: 6.00 to 7.00

Prompt: Then CNC1CCN(c2nc(NCc3ccccc3-c3nccc4cc(NC(=O)/C=C/CN(C)C)ccc34)n3ncc(C(C)C)c3n2)CC1 ?
Completion: > 7.00

Prompt: Then CC(C)c1cnn2c(NCc3ccccc3-c3nccc4cc(NC(=O)/C=C/CN(C)C)ccc34)nc(-n3ccc(CO)n3)nc12 ?
Completion: > 7.00

----------
Test system: H460
PROTOCOL TEXT: Cellular H460 viability assay (CellTiter-Glo, 72 hours)
Type: cell-based
CONDITION SET: Homo sapiens, NCI-H460; H460 cells
pIC50: −log10 of the molar value.
MEASURED QUANTITY: pIC50

Prompt: Record lookup: for H460, what pIC50 belongs to CC(C)c1cnn2c(NCc3ccccc3-c3cc4cccc(NC(=O)/C=C/CN(C)C)c4[nH]3)nc(N3CCC(N)CC3)nc12 ?
Completion: > 6.00

Prompt: Then CC(C)c1cnn2c(NCc3ccccc3OC3CCN(C(=O)/C=C/CN(C)C)CC3)nc(N3CCC(N)CC3)nc12 ?
Completion: > 6.00

Prompt: Then CC(C)c1cnn2c(NCc3cccc(NC4CCCN(C(=O)/C=C/CN(C)C)CC4)c3)nc(N3CCC(N)CC3)nc12 (racemic) ?
Completion: 5.00 to 6.00

Prompt: Then CC(C)c1cnn2c(NCc3ccccc3-c3nccc4cc(NC(=O)/C=C/CN(C)C)ccc34)nc(N3CCC(N)CC3)nc12 ?
Completion: > 6.00

Prompt: Then CC(C)c1cnn2c(NCc3cccc4ccc(NC(=O)/C=C/CN(C)C)nc34)nc(N3CCC(N)CC3)nc12 ?
Completion: > 6.00

Prompt: Then C=CC(=O)Nc1cccc(Oc2cccc(CNc3nc(N4CCC(N(C)C)CC4)nc4c(C(C)C)cnn34)c2)c1 ?
Completion: > 6.00

Prompt: Then CC(C)c1cnn2c(NCc3ccccc3-c3cc4c(NC(=O)/C=C/CN(C)C)cccc4[nH]3)nc(N3CCC(N)CC3)nc12 ?
Completion: > 6.00

Prompt: Then CC(C)c1cnn2c(NCc3ccccc3-c3nccc4cc(NC(=O)/C=C/CN(C)C)ccc34)nc(NC[C@H]3CCNC[C@@H]3O)nc12 ?
Completion: > 6.00

Prompt: Then CC(C)c1cnn2c(NCc3ccccc3-c3cc4cc(NC(=O)/C=C/CN(C)C)ccc4[nH]3)nc(N3CCC(N)CC3)nc12 ?
Completion: 5.00 to 6.00

Prompt: Then C=CC(=O)Nc1cccc(Oc2cccc(CNc3nc(N4CCC(N)CC4)nc4c(C(C)C)cnn34)c2)c1 ?
Completion: > 6.00

Prompt: Then CC(C)c1cnn2c(NCc3cccc(Oc4ccc(F)c(NC(=O)/C=C/CN(C)C)c4)c3)nc(N3CCC(N)CC3)nc12 ?
Completion: > 6.00

Prompt: Then CC(C)c1cnn2c(NCc3ccccc3NC(=O)c3cccc(NC(=O)/C=C/CN(C)C)c3)nc(N3CCC(N)CC3)nc12 ?
Completion: > 6.00

Prompt: Then CC(C)c1cnn2c(NCc3cccc(NC(=O)c4cccc(NC(=O)/C=C/CN(C)C)c4)c3)nc(N3CCC(N)CC3)nc12 ?
Completion: 5.00 to 6.00

Prompt: Then CC(C)c1cnn2c(NCc3ccccc3-c3nccc4cc(NC(=O)/C=C/CN(C)C)ccc34)nc(N[C@H]3CC[C@H](O)CC3)nc12 ?
Completion: > 6.00
